Entry source: ChEMBL document CHEMBL2303647

Reported AC50 values follow for various compounds
# assay target: UniProt P27652
# experimental setup: read-out: AC50
# Description: GSK_PKIS: Inhibition of Sea Pansy Luciferase (Data from PubChem: AID 652015) [NIH NCATS]
experimental endpoint: AC50 (µM)

{"compound": "COc1cc2c(cc1Nc1nc(N3CCc4ccccc43)c3cc[nH]c3n1)N(C(=O)CN(C)C)CC2 [GSK-2186269A]", "assay target": "UniProt P27652", "test value": 23.1}
{"compound": "CCCN1CCC=C(c2ccc(Nc3nc(Nc4ccccc4C(N)=O)c4cc[nH]c4n3)c(C)c2)C1 [GSK-994854A]", "assay target": "UniProt P27652", "test value": 46.1}
{"compound": "COC(=O)Nc1nc2cc(Oc3ccc(NC(=O)Nc4cccc(C(=O)O)c4)cc3)ccc2[nH]1 [GW701427A]", "assay target": "UniProt P27652", "test value": 41.1}
{"compound": "OCc1ccc(-c2nc(-c3ccccn3)c(-c3ccc4c(c3)OCO4)[nH]2)cc1", "assay target": "UniProt P27652", "test value": 41.1}
{"compound": "COc1ccc(-c2coc3ncnc(N)c23)cc1 [GW642125X]", "assay target": "UniProt P27652", "test value": 20.6}
{"compound": "CN(C)c1cc2c(Nc3ccc4nc(Cc5ccccc5)[nH]c4c3)ncnc2cn1 [GW301888X]", "assay target": "UniProt P27652", "test value": 18.3}
{"compound": "COc1ccc2[nH]c3c4[nH]c5ccc(OC)cc5c4c4c(c3c2c1)C(=O)NC4=O [GW296115X]", "assay target": "UniProt P27652", "test value": 25.9}
{"compound": "O=C1Nc2ccc(C(=O)c3ccco3)cc2C1=Cc1cc(Cl)c(O)c(Cl)c1 [GW406108X]", "assay target": "UniProt P27652", "test value": 16.3}
{"compound": "CS(=O)(=O)Nc1ccc(N/C=C2\\C(=O)Nc3ccccc32)cc1 [GW278681X]", "assay target": "UniProt P27652", "test value": 23.1}
{"compound": "Cc1ccc(NC(=O)c2ccnc(N3CCCC3)c2)cc1-c1ccc(C(=O)NCC2CC2)cc1 [GW769076X]", "assay target": "UniProt P27652", "test value": 29.1}
{"compound": "NS(=O)(=O)c1ccc(N/N=C2\\C(=O)Nc3ccc(C(=O)NCCCn4ccnc4)cc32)cc1 [GW290597X]", "assay target": "UniProt P27652", "test value": 18.3}
{"compound": "Cc1cc(-c2ccccn2)cc(C)c1/C=C/c1cncc(-c2nn[nH]n2)c1.Cl [GW459057A]", "assay target": "UniProt P27652", "test value": 32.6}
{"compound": "[O-][S+]1CCN(Cc2ccc(-c3ccc4ncnc(Nc5ccc(OCc6ccccc6)c(Cl)c5)c4c3)o2)CC1 [GW583373A]", "assay target": "UniProt P27652", "test value": 0.0005}
{"compound": "Fc1ccc(-c2ncn(C3CCNCC3)c2-c2ccnc(Oc3ccccc3)n2)cc1", "assay target": "UniProt P27652", "test value": 18.3}
{"compound": "O=C(O)C(F)(F)F.O=C(O[C@H]1CN[C@H](C#Cc2cc3ncnc(Nc4ccc(Cc5ccccc5)cc4)c3s2)C1)N1CCOCC1 [GSK-238583A]", "assay target": "UniProt P27652", "test value": 23.1}
{"compound": "Cc1nnc(-c2cccc(-c3ccc(C(=O)NCC4CC4)cc3)c2)o1 [GW734508X]", "assay target": "UniProt P27652", "test value": 36.6}
{"compound": "CN(C)c1cc2c(Nc3ccc4c(cnn4Cc4ccccc4)c3)ncnc2cn1 [GW282974X]", "assay target": "UniProt P27652", "test value": 23.1}

---

# assay target: Coelenterazine h 2-monooxygenase (Renilla reniformis, UniProt P27652)
# Sequence (P27652 whole entry): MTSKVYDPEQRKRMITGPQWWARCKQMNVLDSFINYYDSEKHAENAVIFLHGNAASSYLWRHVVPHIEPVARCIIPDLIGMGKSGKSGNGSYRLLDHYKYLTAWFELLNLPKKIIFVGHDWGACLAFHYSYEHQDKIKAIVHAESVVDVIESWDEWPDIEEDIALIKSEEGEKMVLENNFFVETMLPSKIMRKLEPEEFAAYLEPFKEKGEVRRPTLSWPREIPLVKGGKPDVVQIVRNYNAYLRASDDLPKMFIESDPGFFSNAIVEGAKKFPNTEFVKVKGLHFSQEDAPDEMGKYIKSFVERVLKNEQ
# experimental setup: read-out: AC50

{"compound": "CCn1c(-c2nonc2N)nc2c(C#CC(C)(C)O)nc(OCCNC)cc21.Cl [GSK-949675A]", "AC50 [µM]": 20.6}
{"compound": "NS(=O)(=O)c1ccc(NC=C2C(=O)Nc3ccc4ncsc4c32)cc1 [GW589933X]", "AC50 [µM]": 16.3}
{"compound": "Cc1ccc(O)cc1Nc1ccnc2cc(-c3ccccn3)ccc12 [GW440139A]", "AC50 [µM]": 23.1}
{"compound": "CC(C)c1ccc(-c2cc(-c3c[nH]nc3-c3ccccn3)ccn2)cc1 [GW682841X]", "AC50 [µM]": 1.46}
{"compound": "CN(C)CCOc1ccc(-c2nc(-c3ccncc3)c(-c3ccc4c(c3)CC/C4=N\\O)[nH]2)cc1", "AC50 [µM]": 29.1}
{"compound": "O=C1Nc2ccccc2/C1=C1\\CCc2cc(O)ccc21", "AC50 [µM]": 20.6}
{"compound": "O=C1NC(=O)C(c2cccc(Cl)c2)=C1Nc1ccc(O)c(Cl)c1", "AC50 [µM]": 36.6}
{"compound": "CN1CCN(Cc2ccc(-c3cc4ncnc(Nc5ccc(OCc6cccc(F)c6)c(Cl)c5)c4s3)o2)CC1 [GW784684X]", "AC50 [µM]": 20.6}
{"compound": "O=C(NCC1CC1)c1ccc(-c2cccc(C(=O)NC3CC3)c2)cc1 [GW806776X]", "AC50 [µM]": 7.3}

---

# assay target: Luciferin 4-monooxygenase (Photinus pyralis, UniProt P08659)
# Sequence (P08659 whole entry): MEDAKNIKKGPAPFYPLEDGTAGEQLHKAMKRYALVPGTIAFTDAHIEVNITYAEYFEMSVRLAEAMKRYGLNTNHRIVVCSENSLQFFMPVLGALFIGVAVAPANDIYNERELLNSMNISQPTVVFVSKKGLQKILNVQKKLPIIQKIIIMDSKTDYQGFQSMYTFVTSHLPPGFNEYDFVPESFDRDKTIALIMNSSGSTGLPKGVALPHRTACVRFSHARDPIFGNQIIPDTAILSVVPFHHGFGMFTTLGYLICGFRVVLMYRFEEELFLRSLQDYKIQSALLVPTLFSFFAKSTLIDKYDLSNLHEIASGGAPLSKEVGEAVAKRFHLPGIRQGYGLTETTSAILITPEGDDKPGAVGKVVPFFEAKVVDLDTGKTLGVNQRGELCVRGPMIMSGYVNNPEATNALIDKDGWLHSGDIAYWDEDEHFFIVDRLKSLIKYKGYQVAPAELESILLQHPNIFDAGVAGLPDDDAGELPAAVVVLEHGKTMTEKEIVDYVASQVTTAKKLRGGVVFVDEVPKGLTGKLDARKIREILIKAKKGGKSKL
# experimental setup: read-out: AC50
# Description: GSK_PKIS: Inhibition of Firefly Luciferase (Data from PubChem: AID 652016) [NIH NCATS]
Reported AC50 values follow for various compounds
experimental endpoint: AC50

{"compound": "c1ccc(Cc2nc3ccc(Nc4ncnc5ccccc45)cc3[nH]2)cc1", "test value": "16.3 µM"}
{"compound": "CS(=O)(=O)CCNCc1ccc(-c2ccc3ncnc(Nc4ccc(OCc5ccccc5)c(Br)c4)c3c2)o1.Cl [GW580496A]", "test value": "20.6 µM"}
{"compound": "CS(=O)(=O)CCNCc1ccc(-c2ccc3ncnc(Nc4ccc(OCc5ccccc5)c(Cl)c4)c3c2)o1.Cl [GW574783B]", "test value": "20.6 µM"}
{"compound": "CN(c1ccc(NC(=O)Nc2c(Cl)cccc2Cl)cc1)c1ccnc(Nc2cccc(CS(C)(=O)=O)c2)n1 [GW809897X]", "test value": "0.58 µM"}
{"compound": "O=C(Nc1n[nH]c2cc(-c3ccccc3)ccc12)C1CC1", "test value": "18.3 µM"}
{"compound": "[O-][S+]1CCN(Cc2ccc(-c3ccc4ncnc(Nc5ccc(OCc6ccccc6)c(Cl)c5)c4c3)o2)CC1 [GW583373A]", "test value": "14.6 µM"}
{"compound": "CCCN1CCC(Oc2cc(Nc3nc(Nc4cccc(F)c4C(N)=O)c4cc[nH]c4n3)c(OC)cc2Cl)CC1 [GSK-1713088A]", "test value": "0.291 µM"}
{"compound": "O=C1Nc2ccc(-c3cccnc3)cc2C1=Cc1cc(Br)c(O)c(Br)c1 [GW429374A]", "test value": "32.6 µM"}
{"compound": "NS(=O)(=O)c1ccc(N/N=C2\\C(=O)Nc3ccc4ncccc4c32)cc1 [GW305178X]", "test value": "29.1 µM"}
{"compound": "CCCN(CCS(C)(=O)=O)Cc1ccc(-c2ccc3ncnc(Nc4ccc(OCc5cccc(F)c5)c(Cl)c4)c3c2)o1.Cl [GW621823A]", "test value": "20.6 µM"}
{"compound": "CNC(=O)c1cncc(/C=C/c2c(C)cccc2C)c1 [GW445012X]", "test value": "20.6 µM"}
{"compound": "Cc1ccc(O)cc1Nc1ccnc2ccc(S(C)(=O)=O)cc12 [GW559768X]", "test value": "41.1 µM"}
{"compound": "CN(C)CCOc1ccc(-c2nc(-c3ccncc3)c(-c3ccc4c(c3)CC/C4=N\\O)[nH]2)cc1", "test value": "14.6 µM"}
{"compound": "Cn1cc(C=C2C(=O)Nc3cccnc32)c2ccccc21 [GW441756X]", "test value": "14.6 µM"}
{"compound": "COc1cccc(-c2c[nH]c3c(N/N=C/c4ccncc4)ncnc23)c1 [GW814408X]", "test value": "5.8 µM"}
{"compound": "COc1ccc2cc(-c3c(-c4ccncc4)nc(-c4ccc([S+](C)[O-])cc4)n3C)ccc2c1 (centres undefined)", "test value": "36.6 µM"}
{"compound": "C/C(Nc1ccc(S(N)(=O)=O)cc1)=C1/C(=O)Nc2ccccc21 [GW335962X]", "test value": "3.66 µM"}
{"compound": "COC(=O)Nc1nc2ccc(Oc3ccc(NC(=O)Nc4cccc(Cl)c4)cc3)cc2[nH]1.Cl [GW589961A]", "test value": "20.6 µM"}
{"compound": "COC(=O)Nc1nc2cc(Oc3ccc(NC(=O)Nc4cccc(C(=O)O)c4)cc3)ccc2[nH]1 [GW701427A]", "test value": "0.116 µM"}
{"compound": "c1cnn2ncc(-c3ccnc(Nc4ccc5c(c4)OCCO5)n3)c2c1 [GW806290X]", "test value": "2.91 µM"}
{"compound": "Cl.Nc1nccc(-c2c(-c3ccc(F)cc3)ncn2C2CCNCC2)n1", "test value": "23.1 µM"}
{"compound": "Cl.O=C(Nc1ccc(Oc2ccc3[nH]c(NC(=O)c4ccco4)nc3c2)cc1)Nc1cc(C(F)(F)F)ccc1F [GW683134A]", "test value": "20.6 µM"}
{"compound": "Cl.NC(=O)c1cccc(Nc2nccc(Nc3cccc(F)c3)n2)c1 [GW759710A]", "test value": "0.73 µM"}
{"compound": "CS(=O)(=O)CCNCc1coc(-c2ccc3ncnc(Nc4ccc(OCc5ccccc5)cc4)c3c2)c1.Cl [GW566221A]", "test value": "13 µM"}
{"compound": "Cl.[O-][S+]1CCN(Cc2ccc(-c3ccc4ncnc(Nc5ccc(OCc6ccccc6)c(F)c5)c4c3)o2)CC1 [GW576924A]", "test value": "16.3 µM"}
{"compound": "CN(C)CCNC(=O)Nc1ccc(N(C)c2ccnc(Nc3ccc(CS(C)(=O)=O)cc3)n2)cc1.Cl [GW830900A]", "test value": "29.1 µM"}
{"compound": "COc1cccc(-n2ncc3c(N/N=C/c4ccc(C(=O)NCCN(C)C)cc4)ncnc32)c1.Cl [GW784307A]", "test value": "16.3 µM"}
{"compound": "Cc1ccc(NC(=O)c2ccoc2)cc1-c1ccc(C(=O)NCC2CC2)cc1 [GW743024X]", "test value": "41.1 µM"}
{"compound": "CN(c1ccc(NC(=O)NCCN2CCOCC2)cc1)c1ccnc(Nc2ccc(CS(C)(=O)=O)cc2)n1.Cl [GW830365A]", "test value": "20.6 µM"}
{"compound": "COC(=O)Nc1nc2cc(Oc3cccc(NC(=O)Nc4cc(C(F)(F)F)ccc4F)c3)ccc2[nH]1.Cl [GW659386A]", "test value": "16.3 µM"}
{"compound": "FC(F)(F)c1cccc(-c2nn3ncccc3c2-c2ccnc(Nc3ccc4c(c3)OCCO4)n2)c1 [GW827102X]", "test value": "32.6 µM"}
{"compound": "COC(=O)c1ccc2c(c1)C(=Cc1cc(Br)c(O)c(Br)c1)C(=O)N2 [GW405841X]", "test value": "20.6 µM"}
{"compound": "COc1cc(Nc2nccc(Nc3ccc4c(C)n[nH]c4c3)n2)cc(OC)c1OC [GW612286X]", "test value": "18.3 µM"}
{"compound": "OCc1ccc(-c2nc(-c3ccccn3)c(-c3ccc4c(c3)OCO4)[nH]2)cc1", "test value": "18.3 µM"}
